# System: KB
# PROCEDURE_TEXT: Cytotoxicity against human KB cells after 72 hrs by SRB assay
# Assay type: functional, cell-based
MEASURE_NAME: pIC50
pIC50 here is simply -log10 of the concentration when that concentration is written in mol/L.

Consider the worked cases shown below.
COMPOUND	pIC50
O=c1[nH]c(=O)n([C@H]2C[C@H](O)[C@@H](CO)O2)cc1F	5.06
CCNP(=O)(OC[C@H]1O[C@@H](n2cc(F)c(=O)[nH]c2=O)C[C@@H]1N=[N+]=[N-])Oc1ccc(Cl)cc1 (some centres not stated)	5.79
[N-]=[N+]=NCCCNP(=O)(OC[C@H]1O[C@@H](n2cc(F)c(=O)[nH]c2=O)C[C@@H]1N=[N+]=[N-])Oc1ccc(Cl)cc1 (some centres not stated)	4.00

Q) # get_value(readout='pIC50', item= "[N-]=[N+]=N[C@H]1C[C@H](n2cc(F)c(=O)[nH]c2=O)O[C@@H]1CO" )
A) 5.09

Q) Given the entry C=CCNP(=O)(OC[C@H]1O[C@@H](n2cc(F)c(=O)[nH]c2=O)C[C@@H]1N=[N+]=[N-])Oc1ccc(Cl)cc1 (some centres not stated) , report its measured pIC50.
A) 5.07

Q) For [N-]=[N+]=NCCCCNP(=O)(OC[C@H]1O[C@@H](n2cc(F)c(=O)[nH]c2=O)C[C@@H]1N=[N+]=[N-])Oc1ccc(Cl)cc1 (some centres not stated) , what is its reported pIC50?
A) 4.33
